# Test system: HepG2 cells
# Protocol description: Drug/cytokine-induced cytotoxicity (% LDH release) concentration-response in HepG2 cells
# Assay type: cell-based, human
# Applied conditions: value corresponding to 10% of Delta (max-min); drug alone (VEH); NA = no significant increase
Endpoint: EC10

INSERT INTO assay_data (molecule, experimental_system, reported_result) VALUES
  ('CC[C@H]1OC(=O)[C@H](C)C(=O)[C@H](C)[C@@H](O[C@@H]2O[C@H](C)C[C@H](N(C)C)[C@H]2O)[C@](C)(OC)C[C@@H](C)C(=O)[C@H](C)[C@H]2N(CCCCn3cnc(-c4cccnc4)c3)C(=O)O[C@]12C [Telithromycin]', 'HepG2 cells', '77.0 [drug]/Cmax'),
  ('NNC(=O)c1ccncc1 [Isoniazid]', 'HepG2 cells', '427.0 [drug]/Cmax'),
  ('COc1ccc2cc([C@H](C)C(=O)O)ccc2c1 [Naproxen]', 'HepG2 cells', '59.8 [drug]/Cmax'),
  ('CN(C)CCCN1c2ccccc2Sc2ccc(Cl)cc21 [Chlorpromazine]', 'HepG2 cells', '35.8 [drug]/Cmax');
